Just for reference, PubChem BioAssay (EPA / NIEHS) is where these values come from.

test-summary: ACEA_ER_80hr: ACEA Biosciences xCELLigence Real-Time Cell Analysis on Estrogen Receptor Agonism for Proliferation (AID 2282667)
condition-context: T47D proliferation, impedance (xCELLigence), 80 h
Records with an inconclusive call do not appear. The source made the active and inactive calls. The calls were made as follows: active = hit-call score of the fitted dose curve at least 0.9, where 1 is the maximum; inconclusive = response in the unintended direction; inactive = score below 0.9.
Your answer must be one of the following: active, inactive

Here are 5 compounds together with their reported answers.
In [3]: df
Out[3]:
                                   compound     class
0                     O=C(O)c1cc2ccccc2cc1O  inactive
1                        CC(C)C(=O)c1ccccc1  inactive
2                        [Cl][Dy]([Cl])[Cl]    active
3    c1ccc2c(c1)-c1ccc3ccc4cccc5cc-2c1c3c45  inactive
4  CCCCOC(=O)C(C)OC(=O)CCC (stereo not drawn)  inactive

// outcome(item) with item = CCCC[N+](C)(CCCC)CCCC
inactive

What do you have for OCCN1CCOCC1 ?
inactive

What do you have for CC/C=C\CCOC(C)OCC (stereo not drawn) ?
inactive

What do you have for Nc1cc([N+](=O)[O-])ccc1C(=O)O ?
inactive

What do you have for CCCCCCCCOC(=O)c1ccc(O)cc1 ?
active

What do you have for CCO[Si](CC)(OCC)OCC ?
inactive

What do you have for C[C@H](CCC(=O)O)[C@H]1CC[C@H]2[C@@H]3CC[C@@H]4C[C@H](O)CC[C@]4(C)[C@H]3CC[C@]12C ?
inactive

What do you have for OCC(F)(OC(F)(F)C(F)(OC(F)(F)C(F)(F)C(F)(F)F)C(F)(F)F)C(F)(F)F (stereo not drawn) ?
inactive

What do you have for COC(=O)C(C)Oc1ccc(Oc2ncc(C(F)(F)F)cc2Cl)cc1 (stereo not drawn) ?
inactive

What do you have for O=C(O)C(F)(F)C(F)(F)C(F)(F)C(F)(F)C(F)(F)C(F)(F)C(F)(F)C(F)F ?
active

What do you have for CCOc1ccc(NC(C)=O)cc1 ?
inactive

What do you have for O=C(Nc1cccc(Cl)c1)OCC#CCCl ?
inactive

What do you have for C=C1CC[C@H]2O[C@]2(C)CC[C@@H]2[C@@H]1CC2(C)C ?
inactive

What do you have for CC/C=C\CCOC(=O)C(C)C ?
inactive

What do you have for COC(=O)c1cccc(C(=O)OC)c1 ?
inactive

What do you have for c1ccc(Sc2ccccc2)cc1 ?
inactive

What do you have for C1COCO1 ?
inactive

What do you have for CCCCN(CCCC)CCCCCCN(CCCC)CCCC ?
inactive

What do you have for CC(C)COC(=O)c1ccccc1 ?
inactive

What do you have for CN(C)CCCNCCCN(C)C ?
inactive

What do you have for O=C1OC2(c3ccc(O)cc3Oc3cc(O)ccc32)c2ccccc21 ?
inactive

What do you have for CC(C)CCCC(C)(C)O ?
inactive

What do you have for CC1=CC(C)C(C=O)C(C)C1 (stereo not drawn) (tested in a mixture with another compound) ?
inactive

###

test-summary: BSK_3C_Vis: BioMAP Diversity Plus: 3C Assay for Morphology Visualization (AID 2283025);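 also: fitted both ways so gain or loss versus DMSO counts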
condition-context: primary human endothelial cells (HUVEC)
The source made the active and inactive calls. Rule for the calls: active = hit-call score of the fitted dose curve at least 0.9, where 1 is the maximum; inactive = score below 0.9.
Your answer must be one of the following: True = active, False = inactive

Here are 2 compounds together with their reported answers.
>>> print(df.to_string())
                                 compound  class
0  c1ccc2c(c1)-c1ccc3ccc4cccc5cc-2c1c3c45   True
1                     CCOC(=O)C=Cc1ccccc1  False

// outcome(item) with item = O=C(c1ccc(OCCN2CCCCC2)cc1)c1c(-c2ccc(O)cc2)sc2cc(O)ccc12
True

What do you have for CC(=O)OCC=C(C)CCC=C(C)CCC=C(C)C ?
False

What do you have for CCCCCCCCCC(=O)OCC ?
True

What do you have for C=C1CC/C=C(\C)CC[C@@H]2[C@@H]1CC2(C)C ?
True

###

assay-system: Cellular tumor antigen p53 (Homo sapiens)
test-summary: ATG_p53_CIS: Attagene CIS-FACTORIAL HepG2 Assay for human p53 Transcription Factor (AID 2282994)
condition-context: HepG2 p53 cis-element reporter, Attagene mRNA; actives raise or lower the signal
Calls of active or inactive are those of the source. Rule for the calls: active = hit-call score of the fitted dose curve at least 0.9, where 1 is the maximum; inactive = score below 0.9.
Your answer must be one of the following: 1 for active, 0 for inactive

>>> df
             compound                              assay_system  class
0  O=C(O)c1cccc(Cl)n1  Cellular tumor antigen p53 (Homo sapiens)      0

// outcome(item) with item = Cc1cccc(O)c1
0

###

assay-system: Estrogen receptor (Homo sapiens)
test-summary: CCTE_Deisenroth_AIME_384WELL_LUC_Shift: CCTE's 384-well Estrogen Receptor Transactivation Assay with AIME metabolic competence data shift (ERTA luciferase; difference in metabolism positive and negative), Deisenroth Lab (AID 2284041);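 also: shift is response with S9 minus without S9 so positive means metabolism raised ER signal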
Calls of active or inactive are those of the source. The calls were made as follows: active = hit-call score of the fitted dose curve at least 0.9, where 1 is the maximum; inactive = score below 0.9.
Your answer must be one of the following: yes (1) = active, no (0) = inactive

Here are 5 molecules together with their reported answers.
In [3]: df
Out[3]:
                    molecule    class
0   O=C(OCc1ccccc1)c1ccccc1O  yes (1)
1  CCCCCCCCOC(=O)c1ccc(O)cc1  yes (1)
2                    NC(N)=S   no (0)
3            CCCC1CCC(=O)CC1   no (0)
4                  C1CCCNCC1   no (0)

// outcome(item) with item = CC(=O)CC(=O)N(C)C
no (0)

What do you have for CC(C)(C)C1CCC(O)CC1 (centres undefined) ?
no (0)

What do you have for CCC(=O)OC(C)(C)C1CC=C(C)CC1 (centres undefined) ?
no (0)

What do you have for CN(C)C(=O)Nc1ccccc1 ?
no (0)

###

test-summary: CCTE_Deisenroth_AIME_384WELL_CTox_Active: Cytotoxicity Assessment (CTOX) in CCTE's 384-well Estrogen Receptor Transactivation Assay with AIME metabolic competence (metabolism positive), Deisenroth Lab (AID 2284037);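 also: chemicals first conditioned 2 h by alginate-bound induced rat liver S9 before cells; activity means signal loss indicating cell death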
Records with an inconclusive call do not appear. Activity calls are given as the source filed them. The calls were made as follows: active = hit-call score of the fitted dose curve at least 0.9, where 1 is the maximum; inconclusive = response in the unintended direction; inactive = score below 0.9.
Your answer must be one of the following: active, inactive

Here are 2 compounds together with their reported answers.
In [3]: df
Out[3]:
                                   compound     class
0  CC(=O)OC/C=C(C)/C=C/C=C(C)/C=C/C1=C(C)CCCC1(C)C  inactive
1    CCC(C)COC(=O)CC(C)C (stereo not given)  inactive

// outcome(item) with item = COc1ccc2[nH]cc(CCNC(C)=O)c2c1
inactive

What do you have for CC(C)N(c1ccccc1)C(C)C ?
inactive

What do you have for C#C[C@]1(O)CC[C@H]2[C@@H]3CCc4cc(O)ccc4[C@H]3CC[C@@]21C ?
active

What do you have for Cc1cccc(O)c1 ?
inactive

###

assay-system: Hypoxia-inducible factor 1-alpha (Homo sapiens) (UniProt Q16665)
Sequence (Q16665 whole entry, looked up): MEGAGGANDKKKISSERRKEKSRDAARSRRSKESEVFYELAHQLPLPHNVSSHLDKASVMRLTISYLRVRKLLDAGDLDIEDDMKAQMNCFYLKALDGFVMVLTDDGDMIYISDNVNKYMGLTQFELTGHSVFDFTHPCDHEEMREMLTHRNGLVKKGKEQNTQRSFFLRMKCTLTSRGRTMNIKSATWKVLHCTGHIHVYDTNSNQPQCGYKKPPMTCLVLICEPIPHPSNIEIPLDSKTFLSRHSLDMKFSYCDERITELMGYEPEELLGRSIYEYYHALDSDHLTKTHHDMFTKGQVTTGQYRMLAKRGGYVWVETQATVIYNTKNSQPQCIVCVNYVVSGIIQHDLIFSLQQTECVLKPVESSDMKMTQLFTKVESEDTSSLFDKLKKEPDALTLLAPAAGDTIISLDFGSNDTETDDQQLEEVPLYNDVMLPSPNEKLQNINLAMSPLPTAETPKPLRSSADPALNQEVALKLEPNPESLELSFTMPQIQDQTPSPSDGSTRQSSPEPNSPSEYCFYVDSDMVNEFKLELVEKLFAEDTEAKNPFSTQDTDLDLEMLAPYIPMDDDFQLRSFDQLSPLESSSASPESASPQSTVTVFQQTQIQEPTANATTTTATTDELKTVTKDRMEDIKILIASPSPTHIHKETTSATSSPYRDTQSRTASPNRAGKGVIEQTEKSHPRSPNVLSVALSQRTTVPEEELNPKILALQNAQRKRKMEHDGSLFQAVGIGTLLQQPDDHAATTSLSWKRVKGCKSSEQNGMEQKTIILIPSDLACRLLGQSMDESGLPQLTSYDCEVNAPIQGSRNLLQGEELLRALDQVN
test-summary: ATG_HIF1a_CIS: Attagene CIS-FACTORIAL HepG2 Assay for human Hypoxia Inducible Factor 1 (HIF1A) (AID 2282951)
condition-context: HepG2 Attagene cis-factorial HIF1a reporter transcription; actives raise or lower the signal
Description: ATG_CIS is a cell-based, multiplexed-readout assay that uses HepG2, a human liver cell line, with measurements taken at 24 hours after chemical dosing in a 24-well plate.ATG_HIF1a_CIS is one of 52 assay component(s) measured or calculated from the ATG_CIS assay. […] This assay endpoint, ATG_HIF1a_CIS, was analyzed with bidirectional fitting relative to DMSO as the negative control and baseline of activity. […]
Active and inactive are the calls of the source. The calls were made as follows: active = hit-call score of the fitted dose curve at least 0.9, where 1 is the maximum; inactive = score below 0.9.
Your answer must be one of the following: class 1 = active, class 0 = inactive

Here are 5 compounds together with their reported answers.
In [3]: df
Out[3]:
                                   compound    class
0    CCCCCCCCCCOC(=O)c1ccccc1C(=O)OCCCCCCCC  class 0
1  C=C(C)C(=O)OCCC(C)OC(=O)C(=C)C (stereo unspecified)  class 0
2  CCCCCCC(O)CCOC(C)=O (stereo unspecified)  class 0
3             Nc1cc([N+](=O)[O-])ccc1C(=O)O  class 0
4                            CC(=O)CCC(=O)O  class 0

// outcome(item) with item = CC(C)COC(=O)c1ccccc1
class 0

What do you have for CCCCCCCCOS(=O)(=O)O ?
class 0

What do you have for CC/C=C\CCOC(=O)C(C)C ?
class 0

What do you have for CCC(C)(C)c1cc(O)c(C(C)(C)CC)cc1O ?
class 1

###

Read-out: Interleukin-8 (IL8), CXCL8 (gene 3576)
test-summary: BSK_KF3CT_IL8: BioMAP Diversity Plus: KF3CT Assay for Interleukin-8 (IL8) Biomarker Activity (AID 2284254)
condition-context: primary human keratinocytes with fibroblasts
Activity calls are given as the source filed them. The calls were made as follows: active = hit-call score of the fitted dose curve at least 0.9, where 1 is the maximum; inactive = score below 0.9.
assay-readout: outcome

The following compounds have reported results that may help.
In [3]: df
Out[3]:
                                 smiles_str  assay_readout  observed_value
0                             CCCCN(CCO)CCO        outcome        inactive
1  O=C(O)C(F)(F)C(F)(F)C(F)(F)C(F)(F)C(F)(F)C(F)(F)C(F)(F)C(F)F        outcome        inactive
2           CCn1cc(C(=O)O)c(=O)c2ccc(C)nc21        outcome        inactive
3           C=C(F)C(=O)OC(C(F)(F)F)C(F)(F)F        outcome        inactive
4  O=S(=O)(O)C(F)(F)C(F)(F)OC(F)(F)C(F)(F)F        outcome        inactive

Request the reported outcome associated with C=C(C)C(=O)OCCC(F)(F)C(F)(F)C(F)(F)C(F)(F)C(F)(F)C(F)(F)C(F)(F)C(F)(F)F
inactive

What do you have for c1ccc(OCCOc2ccccc2)cc1 ?
inactive
